Catalogue of Population Fragmented Nuclei (%) readings, one per entry.
- Tested on: HEK-293T
- ASSAY NOTES: Multiplex assay against HEK293T
- Assay type: toxicity, cell-based
- REPORTED CONDITIONS: human, 48 h, 10 µM, compound concentration 10 uM, replicate 2
MEASURED ENDPOINT: Population Fragmented Nuclei (%)

compound=Cc1ccc(S(=O)(=O)NC2c3ccccc3Oc3ccccc32)cc1 assay_value=4
compound="CC(C)[C@H](CO)Nc1nc(Nc2cccc(Cl)c2)c2ncn(C(C)C)c2n1 [PURVALANOLA]" assay_value=6
compound="C[C@@H](Oc1cc(-n2cnc3ccc(CN4CCN(C)CC4)cc32)sc1C(N)=O)c1ccccc1C(F)(F)F [GSK-461364]" assay_value=12
compound=CCCc1cc(C)[nH]c(=O)c1CNC(=O)c1cc(-c2ccc(N3CCN(C(C)C)CC3)nc2)cc2c1cnn2C(C)C assay_value=5
compound=CN1CCN(Cc2ccc(-c3cnc4[nH]cc(-c5ccc6[nH]ccc6c5)c4c3)cc2)CC1 assay_value=17

----------
- System: Fibroblast
- ASSAY NOTES: Multiplex assay against human fibroblast
- Type: toxicity, cell-based
- REPORTED CONDITIONS: 48 h, 10 µM, compound concentration 10 uM, replicate 2
Label scheme for Population Tubulin-Different-Phenotype (%): category 1: < 50%; category 2: ≥ 50% and < 80%; category 3: ≥ 80%

compound=Cc1c(P(=S)(c2ccccc2)c2ccccc2)n2ccccc2[n+]1C/C=C/c1ccccc1.[Br-] subject_of_test=Fibroblast class_name="category 3"
compound=CC(/C=C1\SC(=S)N(CCCC(=O)Nc2ccc(C(=O)O)c(O)c2)C1=O)=C\c1ccccc1 subject_of_test=Fibroblast class_name="category 1"
compound="C[C@@H](Oc1cc(-n2cnc3ccc(CN4CCN(C)CC4)cc32)sc1C(N)=O)c1ccccc1C(F)(F)F [GSK-461364]" subject_of_test=Fibroblast class_name="category 3"
compound="CN1C(=O)[C@@H](NC(=O)c2cc3ccccc3[nH]2)N=C(c2ccccc2)c2ccccc21 [DEVAZEPIDE]" subject_of_test=Fibroblast class_name="category 2"
compound=c1ccc(-c2oc3ncnc(NC[C@@H]4CCCO4)c3c2-c2ccccc2)cc1 subject_of_test=Fibroblast class_name="category 3"
compound="N#CCNC(=O)c1ccc(-c2ccnc(Nc3ccc(N4CCOCC4)cc3)n2)cc1 [MOMELOTINIB]" subject_of_test=Fibroblast class_name="category 2"
compound="Oc1cccc(-c2nc(N3CCOCC3)c3oc4ncccc4c3n2)c1 [PI-103]" subject_of_test=Fibroblast class_name="category 2"
compound="CC(Cc1ccc(O)c(O)c1)C(C)Cc1ccc(O)c(O)c1 (configuration not stated) [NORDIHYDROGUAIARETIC ACID]" subject_of_test=Fibroblast class_name="category 1"
compound=Cl.NC[C@@H]1O[C@H](C23CC4CC(CC(C4)C2)C3)Cc2c1ccc(O)c2O subject_of_test=Fibroblast class_name="category 1"
compound=CCCCN(CC)c1nc(C)nc2c1c(C)cn2-c1c(C)cc(C)cc1C.Cl subject_of_test=Fibroblast class_name="category 3"

----------
- Test system: U2OS
- ASSAY NOTES: Multiplex assay against U2OS
- Type: toxicity, cell-based
- REPORTED CONDITIONS: human, 12 h, 1 µM, compound concentration 1 uM, replicate 1
Catalogue of Population Normal (%) readings, one per entry.
MEASURED ENDPOINT: Population Normal (%)

compound=CC(C)c1cc(Nc2nc(N3CCC[C@H](N)C3)ncc2C(N)=O)cc(C(C)C)n1 measured_endpoint="Population Normal (%)" assay_value=94
compound=CN(c1cc(C(F)(F)F)nc(OCCC(=O)O)n1)c1cccc2c1CCC2 measured_endpoint="Population Normal (%)" assay_value=88
compound="CN1C(=O)[C@@H](NC(=O)c2cc3ccccc3[nH]2)N=C(c2ccccc2)c2ccccc21 [DEVAZEPIDE]" measured_endpoint="Population Normal (%)" assay_value=92
compound="Oc1cccc(-c2nc(N3CCOCC3)c3oc4ncccc4c3n2)c1 [PI-103]" measured_endpoint="Population Normal (%)" assay_value=88
compound=CCCCN(CC)c1nc(C)nc2c1c(C)cn2-c1c(C)cc(C)cc1C.Cl measured_endpoint="Population Normal (%)" assay_value=91
compound=C=CC(=O)Nc1cc(-n2c(=O)ccc3cnc4ccc(-c5ccc(NS(C)(=O)=O)cc5)cc4c32)ccc1C measured_endpoint="Population Normal (%)" assay_value=96
compound="Cl.Cn1c2c(c3ccc(Cl)c(Cl)c31)C(C#N)C1(CCNCC1)NC2=O (centres undefined)" measured_endpoint="Population Normal (%)" assay_value=98
compound=Cc1c(P(=S)(c2ccccc2)c2ccccc2)n2ccccc2[n+]1C/C=C/c1ccccc1.[Br-] measured_endpoint="Population Normal (%)" assay_value=94
compound=Cl.NC[C@@H]1O[C@H](C23CC4CC(CC(C4)C2)C3)Cc2c1ccc(O)c2O measured_endpoint="Population Normal (%)" assay_value=92

----------
- Test system: HEK-293T
- ASSAY NOTES: Multiplex assay against HEK293T
- Type: toxicity, cell-based
- REPORTED CONDITIONS: human, 12 h, 1 µM, compound concentration 1 uM, replicate 2
Catalogue of Population Normal (%) readings, one per entry.
MEASURED ENDPOINT: Population Normal (%)

molecule=Oc1cccc(-c2nc(N3CCOCC3)c3oc4ncccc4c3n2)c1 subject_of_test=HEK-293T unit_abbrev=% assay_value=85
molecule=CC(C)c1cc(Nc2nc(N3CCC[C@H](N)C3)ncc2C(N)=O)cc(C(C)C)n1 subject_of_test=HEK-293T unit_abbrev=% assay_value=92
molecule=Cc1c(Nc2ccc(S(=O)(=O)N3CCN(C)CC3)cc2F)nc2ccc(Nc3cnn(C4CC4)c3)cn2c1=O subject_of_test=HEK-293T unit_abbrev=% assay_value=96
molecule=NC(=O)c1ccc2nc(-c3ccc(C4(N)CCC4)cc3)c(-c3ccccc3)n2n1 subject_of_test=HEK-293T unit_abbrev=% assay_value=95
molecule=CCCCN(CC)c1nc(C)nc2c1c(C)cn2-c1c(C)cc(C)cc1C.Cl subject_of_test=HEK-293T unit_abbrev=% assay_value=98
molecule="CCCCCNC(=N)N/N=C/c1c[nH]c2ccc(OC)cc12.O=C(O)/C=C\\C(=O)O [TEGASEROD MALEATE]" subject_of_test=HEK-293T unit_abbrev=% assay_value=98
molecule=CN(c1cc(C(F)(F)F)nc(OCCC(=O)O)n1)c1cccc2c1CCC2 subject_of_test=HEK-293T unit_abbrev=% assay_value=95
molecule="Cl.Cn1c2c(c3ccc(Cl)c(Cl)c31)C(C#N)C1(CCNCC1)NC2=O (centres undefined)" subject_of_test=HEK-293T unit_abbrev=% assay_value=96
molecule="CN1C(=O)[C@@H](NC(=O)c2cc3ccccc3[nH]2)N=C(c2ccccc2)c2ccccc21 [DEVAZEPIDE]" subject_of_test=HEK-293T unit_abbrev=% assay_value=96

----------
- System: HEK-293T
- ASSAY NOTES: Multiplex assay against HEK293T
- Type: toxicity, cell-based
- REPORTED CONDITIONS: human, 12 h, 10 µM, compound concentration 10 uM, replicate 2
Catalogue of Population Fragmented Nuclei (%) readings, one per entry.
MEASURED ENDPOINT: Population Fragmented Nuclei (%)

compound=CC(/C=C1\SC(=S)N(CCCC(=O)Nc2ccc(C(=O)O)c(O)c2)C1=O)=C\c1ccccc1 subject_of_test=HEK-293T measured_endpoint="Population Fragmented Nuclei (%)" assay_value=5
compound=Cl.NC[C@@H]1O[C@H](C23CC4CC(CC(C4)C2)C3)Cc2c1ccc(O)c2O subject_of_test=HEK-293T measured_endpoint="Population Fragmented Nuclei (%)" assay_value=7
compound="CC[C@@H]1C(=O)N(C)c2cnc(Nc3ccc(C(=O)NC4CCN(C)CC4)cc3OC)nc2N1C1CCCC1 [BI-2536]" subject_of_test=HEK-293T measured_endpoint="Population Fragmented Nuclei (%)" assay_value=4
compound=Cc1ccc(NC(=O)Nc2cc(C(F)(F)F)ccc2F)cc1Nc1ccc2c(c1)NC(=O)/C2=C\c1ccc[nH]1 subject_of_test=HEK-293T measured_endpoint="Population Fragmented Nuclei (%)" assay_value=7
compound=c1ccc(-c2oc3ncnc(NC[C@@H]4CCCO4)c3c2-c2ccccc2)cc1 subject_of_test=HEK-293T measured_endpoint="Population Fragmented Nuclei (%)" assay_value=4
compound=CCCc1cc(C)[nH]c(=O)c1CNC(=O)c1cc(-c2ccc(N3CCN(C(C)C)CC3)nc2)cc2c1cnn2C(C)C subject_of_test=HEK-293T measured_endpoint="Population Fragmented Nuclei (%)" assay_value=5
compound=CCCCN(CC)c1nc(C)nc2c1c(C)cn2-c1c(C)cc(C)cc1C.Cl subject_of_test=HEK-293T measured_endpoint="Population Fragmented Nuclei (%)" assay_value=7
compound="C[C@@H](Oc1cc(-n2cnc3ccc(CN4CCN(C)CC4)cc32)sc1C(N)=O)c1ccccc1C(F)(F)F [GSK-461364]" subject_of_test=HEK-293T measured_endpoint="Population Fragmented Nuclei (%)" assay_value=11
